target: SARS-CoV-2 spike RBD, WT, His-tagged (SARS-CoV-2 (WT), UniProt P0DTC2 319-532); test: BLI competition
quantity: pIC50
One number for each entry, as −log10 of the molar value.

## Input Consider the binder RBD-PB6-Ta (structured_RNA, 2'-fluoro pyrimidines) RNA: GGCGACAUUUGUAAUUCCUGGACCGAUACUUCCGUCAGGACAGAGGUUGCCA . State its measured pIC50.
## Output 6.70

Cited source: paper PMC8685691
